# subjectOfTest: CXCR3 (Homo sapiens, UniProt P49682)
# Construct: host or cells: CHO-K1 (cAMP Hunter CHOK1 CXCR3 Gi cell line)
# Sequence (P49682 whole entry): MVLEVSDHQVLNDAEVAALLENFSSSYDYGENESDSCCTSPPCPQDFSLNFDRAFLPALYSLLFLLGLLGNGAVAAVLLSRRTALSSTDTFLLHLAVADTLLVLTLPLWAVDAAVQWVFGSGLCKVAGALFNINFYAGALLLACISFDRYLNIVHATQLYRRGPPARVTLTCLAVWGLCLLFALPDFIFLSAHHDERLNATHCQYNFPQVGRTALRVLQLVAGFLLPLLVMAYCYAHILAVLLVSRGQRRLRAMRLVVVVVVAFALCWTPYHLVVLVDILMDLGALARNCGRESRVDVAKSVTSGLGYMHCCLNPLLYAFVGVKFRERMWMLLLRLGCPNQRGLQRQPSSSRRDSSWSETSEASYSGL
# assayOverview: CXCR3 cAMP agonist assay (cAMP Hunter CHOK1 CXCR3 Gi cell line, forskolin-stimulated, HitHunter cAMP detection)
# Assay type: cell-based
# experimentalSetup: cAMP Hunter CHOK1 CXCR3 Gi cells, 20 μM forskolin, 30 minutes; read-out: Activity (CXCR3 cAMP agonist assay compound EC50)
# Method: The cAMP Hunter™ CHOK1 CXCR3 Gi cell line was purchased from DiscoveRx. Cells were seeded into a 96-well white assay plate at 50,000 cells/well/94 μl assay buffer (Hank's Buffered Saline Solution, 10 mM HEPES, 0.1% fatty acid-free BSA, pH 7.4) and immediately assayed in suspension. […] Direct detection of cAMP was carried out using the DiscoveRx HitHunter cAMP kit according to manufacturer's instructions, and luminescence was read using a SpectraMax M5 plate reader.
pEC50: −log10 of the molar value.
The compounds listed here are annotated with their pEC50.

Using the record for COc1cc(C)c(Cl)cc1NC(=O)[C@H](CCN)NC(=O)[C@@H]1Cc2ccccc2CN1C(=O)CCC(=O)c1ccccc1 [Compound 1-36] , report its pEC50.
> 7.30

Now the same for Cc1c(F)cc(NC(=O)[C@H](CCN)NC(=O)[C@@H]2Cc3ccccc3CN2C(=O)CCC(=O)c2ccccc2)cc1F [Compound 27-5]
> 7.30

Now the same for Cc1cc(NC(=O)[C@H](CCN)NC(=O)[C@@H]2Cc3ccccc3CN2C(=O)CCC(=O)N2CCC(C(C)C)C2)ccc1Cl (stereo partly shown) [Compound 12-74]
> 7.30

Now the same for NCC[C@H](NC(=O)[C@@H]1Cc2ccccc2CN1C(=O)CCC(=O)c1ccccc1)C(=O)Nc1cc(Cl)c(Cl)cc1C(F)(F)F [Compound 14-2]
> 7.30

Now the same for Cc1cc(NC(=O)[C@H](CCN)NC(=O)[C@@H]2Cc3ccccc3CN2C(=O)CCC(=O)N2CCC2)ccc1Cl [Compound 12-30]
6.60 to 7.30

Now the same for CC[C@H]1CCN(C(=O)CCC(=O)N2Cc3ccccc3C[C@H]2C(=O)N[C@@H](CCN)C(=O)Nc2ccc(Cl)c(C)c2)C1 [Compound 12-153]
> 7.30

Now the same for O=C(CCC(=O)N1Cc2ccccc2C[C@H]1C(=O)N[C@@H](CCN1CCC(O)CC1)C(=O)Nc1ccc2c(c1)CCC2)c1ccccc1 [Compound 28-1]
> 7.30

Now the same for Cc1cc(NC(=O)[C@H](CCN)NC(=O)[C@@H]2Cc3ccccc3CN2C(=O)CCC(=O)N2CCCC(C)(C)C2)ccc1Cl [Compound 12-88]
> 7.30

Now the same for Cc1cc(NC(=O)[C@H](CCN)NC(=O)[C@@H]2Cc3ccccc3CN2C(=O)CCC(=O)N2C(C)CCC2C)ccc1Cl (stereo partly shown) [Compound 12-47]
> 7.30

Now the same for NCC[C@H](NC(=O)[C@@H]1Cc2ccccc2CN1C(=O)CCC(=O)c1ccccc1)C(=O)Nc1ccc2ccncc2c1 [Compound 2-42]
< 6.30

====

The molecules listed here are annotated with their log10 of AUC(0-t).
# assayOverview: Mouse pharmacokinetics after oral gavage, plasma drug concentration by LC-MS/MS (C57BL/6)
# Format: in vivo, C57bl/6 mice
# experimentalSetup: mouse, plasma, C57BL/6, 60 mg/kg, female mice, read-out: AUC0-24
Note the log scale: values are log10 of AUC(0-t) expressed in µM·h.

Answered cases to consult:
givenSmiles	log10 of AUC(0-t)
O=C(CCC(=O)N1Cc2ccccc2C[C@H]1C(=O)NC1(C(=O)Nc2ccc(Cl)c(Cl)c2F)CCNCC1)c1ccccc1	2.00
CC1(C)CCCN(C(=O)CCC(=O)N2Cc3ccccc3C[C@H]2C(=O)N[C@@H](CCN)C(=O)Nc2ccc(Cl)c(Cl)c2F)C1	1.25
CCc1cc(NC(=O)[C@H](CCN)NC(=O)[C@@H]2Cc3ccccc3CN2C(=O)CCC(=O)c2ccccc2)ccc1Cl	1.00
Cc1cc(NC(=O)[C@H](CCN)NC(=O)[C@@H]2Cc3ccccc3CN2C(=O)CCC(=O)N2CCCCC2(C)C)c(C#N)cc1Cl	0.46
CC1(C)CCN(C(=O)CCC(=O)N2Cc3ccccc3C[C@H]2C(=O)N[C@@H](CCN)C(=O)Nc2ccc(Cl)c(Cl)c2F)C1	0.66

Now look at this one.
Using the record for Cc1cccc(NC(=O)[C@H](CCN)NC(=O)[C@@H]2Cc3ccccc3CN2C(=O)CCC(=O)c2ccccc2)c1C , report its log10 of AUC(0-t).
1.15

====

# assayOverview: Mouse pharmacokinetics after oral gavage, plasma drug concentration by LC-MS/MS (C57BL/6)
# Format: in vivo, C57bl/6 mice
# experimentalSetup: C57BL/6, 10 mg/kg, male mice
measurementType: apparent oral clearance (CL/F)

Answered cases to consult:
givenSmiles	measurementType	result
N=C(N)NCCC[C@H](NC(=O)[C@@H]1Cc2ccccc2CN1C(=O)CCC(=O)c1ccccc1)C(=O)NCC1CCCCC1	apparent oral clearance (CL/F)	BQL
Cc1cc(NC(=O)[C@H](CCNC(C)C)NC(=O)[C@@H]2Cc3ccccc3CN2C(=O)CCC(=O)c2ccccc2)ccc1Cl	apparent oral clearance (CL/F)	246 mL/min/kg
Cc1cc(NC(=O)C2(NC(=O)[C@@H]3Cc4ccccc4CN3C(=O)CCC(=O)c3ccccc3)CCN(C)CC2)ccc1Cl	apparent oral clearance (CL/F)	33 mL/min/kg
NCCCC[C@H](NC(=O)[C@@H]1Cc2ccccc2CN1C(=O)CCC(=O)c1ccccc1)C(=O)NCC(c1ccccc1)c1ccccc1	apparent oral clearance (CL/F)	9000 mL/min/kg

Now look at this one.
Using the record for Cc1cc(NC(=O)[C@H](CCCCNC(C)C)NC(=O)[C@@H]2Cc3ccccc3CN2C(=O)CCC(=O)c2ccccc2)ccc1Cl , report its apparent oral clearance (CL/F).
2346 mL/min/kg

====

The molecules listed here are annotated with their Cmax.
# assayOverview: Mouse pharmacokinetics after oral gavage, plasma drug concentration by LC-MS/MS (C57BL/6)
# Assay type: in vivo, C57bl/6 mice
# experimentalSetup: mouse, plasma, C57BL/6, 60 mg/kg, female mice
# Procedure: Compounds were formulated in 5% DMSO/5% Tween20 in H2O, sonicated, vortexed, and put on stir plate overnight at a dose volume of 10 mL/kg. […] Plasma was collected via centrifugation and analyzed for drug concentrations. […] Prepared samples were usually analyzed in reverse chronological order with bracketing standard curves. Typically at least 6 standards were used for quantification with a percent accuracy of +/−15% for all standards except at the LLOQ where a percent accuracy of +/−20% was allowed. […]
Hi! Could you send only the number? It should be in µM, unit omitted.

Using the record for O=C(CCC(=O)N1Cc2ccccc2C[C@H]1C(=O)NC1(C(=O)Nc2ccc(Cl)c(Cl)c2F)CCNCC1)c1ccccc1 [Compound 4-14] , report its Cmax.
5.2

Now the same for Cc1c(Cl)cc(NC(=O)[C@H](CCN)NC(=O)[C@@H]2Cc3ccccc3CN2C(=O)CCC(=O)c2ccccc2)cc1Cl [Compound 27-3]
5.1

Now the same for Cc1cc(NC(=O)[C@H](CCN)NC(=O)[C@@H]2Cc3ccccc3CN2C(=O)CCC(=O)N2CCCCC2(C)C)c(C#N)cc1Cl [Compound 18-1]
1.2

Now the same for NCC[C@H](NC(=O)[C@@H]1Cc2ccccc2CN1C(=O)CCC(=O)c1ccccc1)C(=O)Nc1ccc2c(c1)CCC2 [Compound 2-47]
7.6

Now the same for Cc1ccc(C(F)(F)F)c(NC(=O)[C@H](CCN)NC(=O)[C@@H]2Cc3ccccc3CN2C(=O)CCC(=O)c2ccccc2)c1 [Compound 14-17]
22

Now the same for CC1(C)CCN(C(=O)CCC(=O)N2Cc3ccccc3C[C@H]2C(=O)N[C@@H](CCN)C(=O)Nc2ccc(Cl)c(Cl)c2F)C1 [Compound 15-2]
1.8

====

# subjectOfTest: CXCR3 (Homo sapiens)
# Construct: host or cells: CHO-K1 (cAMP Hunter CHOK1 CXCR3 Gi cell line)
# assayOverview: CXCR3 cAMP agonist assay (cAMP Hunter CHOK1 CXCR3 Gi cell line, forskolin-stimulated, HitHunter cAMP detection)
# Type: cell-based
# experimentalSetup: cAMP Hunter CHOK1 CXCR3 Gi cells, 20 μM forskolin, 30 minutes; read-out: Activity (CXCR3 cAMP agonist assay compound EC50)
# Method: The cAMP Hunter™ CHOK1 CXCR3 Gi cell line was purchased from DiscoveRx. Cells were seeded into a 96-well white assay plate at 50,000 cells/well/94 μl assay buffer (Hank's Buffered Saline Solution, 10 mM HEPES, 0.1% fatty acid-free BSA, pH 7.4) and immediately assayed in suspension. […] Direct detection of cAMP was carried out using the DiscoveRx HitHunter cAMP kit according to manufacturer's instructions, and luminescence was read using a SpectraMax M5 plate reader.
The compounds listed here are annotated with their EC50.

compound	EC50
Cc1ccc(NC(=O)[C@H](CCCCN)NC(=O)[C@@H]2Cc3ccccc3CN2C(=O)CCC(=O)c2ccccc2)cc1 [Compound 1-3]	0.05 to 0.25 µM
Cc1cc(NC(=O)[C@H](CCN)NC(=O)[C@@H]2Cc3ccccc3CN2C(=O)CCC(=O)c2ccccc2)cc(Br)c1Cl [Compound 2-40]	< 0.05 µM
Cc1cc(NC(=O)[C@H](CCN)NC(=O)[C@@H]2Cc3ccccc3CN2C(=O)CCC(=O)N2CCCCC2C#N)ccc1Cl (stereo partly shown) [Compound 12-84]	< 0.05 µM
NCC[C@H](NC(=O)[C@@H]1Cc2ccccc2CN1C(=O)CCC(=O)c1ccccc1)C(=O)Nc1ccc(Cl)cc1F [Compound 2-9]	0.05 to 0.25 µM
NCC[C@H](NC(=O)[C@@H]1Cc2ccccc2CN1C(=O)CCC(=O)c1ccccc1)C(=O)Nc1cccc(-c2ccccc2)c1 [Compound 2-29]	0.25 to 0.5 µM
Cc1cc(NC(=O)[C@H](CCN)NC(=O)[C@@H]2Cc3ccccc3CN2C(=O)CCC(=O)N2[C@H](C)CCC[C@H]2C)ccc1Cl [Compound 12-141]	< 0.05 µM

Now look at this one.
Using the record for CCC1CN(C(=O)CCC(=O)N2Cc3ccccc3C[C@H]2C(=O)N[C@@H](CCN)C(=O)Nc2ccc(Cl)c(C)c2)CCN1C (stereo partly shown) [Compound 12-104] , report its EC50.
< 0.05 µM

Entry source: patent US11040954B1
